Recorded IC50 by entry
Study Target: Human Cav 2.2 channels (Homo sapiens)
Sequence (Q00975 whole entry): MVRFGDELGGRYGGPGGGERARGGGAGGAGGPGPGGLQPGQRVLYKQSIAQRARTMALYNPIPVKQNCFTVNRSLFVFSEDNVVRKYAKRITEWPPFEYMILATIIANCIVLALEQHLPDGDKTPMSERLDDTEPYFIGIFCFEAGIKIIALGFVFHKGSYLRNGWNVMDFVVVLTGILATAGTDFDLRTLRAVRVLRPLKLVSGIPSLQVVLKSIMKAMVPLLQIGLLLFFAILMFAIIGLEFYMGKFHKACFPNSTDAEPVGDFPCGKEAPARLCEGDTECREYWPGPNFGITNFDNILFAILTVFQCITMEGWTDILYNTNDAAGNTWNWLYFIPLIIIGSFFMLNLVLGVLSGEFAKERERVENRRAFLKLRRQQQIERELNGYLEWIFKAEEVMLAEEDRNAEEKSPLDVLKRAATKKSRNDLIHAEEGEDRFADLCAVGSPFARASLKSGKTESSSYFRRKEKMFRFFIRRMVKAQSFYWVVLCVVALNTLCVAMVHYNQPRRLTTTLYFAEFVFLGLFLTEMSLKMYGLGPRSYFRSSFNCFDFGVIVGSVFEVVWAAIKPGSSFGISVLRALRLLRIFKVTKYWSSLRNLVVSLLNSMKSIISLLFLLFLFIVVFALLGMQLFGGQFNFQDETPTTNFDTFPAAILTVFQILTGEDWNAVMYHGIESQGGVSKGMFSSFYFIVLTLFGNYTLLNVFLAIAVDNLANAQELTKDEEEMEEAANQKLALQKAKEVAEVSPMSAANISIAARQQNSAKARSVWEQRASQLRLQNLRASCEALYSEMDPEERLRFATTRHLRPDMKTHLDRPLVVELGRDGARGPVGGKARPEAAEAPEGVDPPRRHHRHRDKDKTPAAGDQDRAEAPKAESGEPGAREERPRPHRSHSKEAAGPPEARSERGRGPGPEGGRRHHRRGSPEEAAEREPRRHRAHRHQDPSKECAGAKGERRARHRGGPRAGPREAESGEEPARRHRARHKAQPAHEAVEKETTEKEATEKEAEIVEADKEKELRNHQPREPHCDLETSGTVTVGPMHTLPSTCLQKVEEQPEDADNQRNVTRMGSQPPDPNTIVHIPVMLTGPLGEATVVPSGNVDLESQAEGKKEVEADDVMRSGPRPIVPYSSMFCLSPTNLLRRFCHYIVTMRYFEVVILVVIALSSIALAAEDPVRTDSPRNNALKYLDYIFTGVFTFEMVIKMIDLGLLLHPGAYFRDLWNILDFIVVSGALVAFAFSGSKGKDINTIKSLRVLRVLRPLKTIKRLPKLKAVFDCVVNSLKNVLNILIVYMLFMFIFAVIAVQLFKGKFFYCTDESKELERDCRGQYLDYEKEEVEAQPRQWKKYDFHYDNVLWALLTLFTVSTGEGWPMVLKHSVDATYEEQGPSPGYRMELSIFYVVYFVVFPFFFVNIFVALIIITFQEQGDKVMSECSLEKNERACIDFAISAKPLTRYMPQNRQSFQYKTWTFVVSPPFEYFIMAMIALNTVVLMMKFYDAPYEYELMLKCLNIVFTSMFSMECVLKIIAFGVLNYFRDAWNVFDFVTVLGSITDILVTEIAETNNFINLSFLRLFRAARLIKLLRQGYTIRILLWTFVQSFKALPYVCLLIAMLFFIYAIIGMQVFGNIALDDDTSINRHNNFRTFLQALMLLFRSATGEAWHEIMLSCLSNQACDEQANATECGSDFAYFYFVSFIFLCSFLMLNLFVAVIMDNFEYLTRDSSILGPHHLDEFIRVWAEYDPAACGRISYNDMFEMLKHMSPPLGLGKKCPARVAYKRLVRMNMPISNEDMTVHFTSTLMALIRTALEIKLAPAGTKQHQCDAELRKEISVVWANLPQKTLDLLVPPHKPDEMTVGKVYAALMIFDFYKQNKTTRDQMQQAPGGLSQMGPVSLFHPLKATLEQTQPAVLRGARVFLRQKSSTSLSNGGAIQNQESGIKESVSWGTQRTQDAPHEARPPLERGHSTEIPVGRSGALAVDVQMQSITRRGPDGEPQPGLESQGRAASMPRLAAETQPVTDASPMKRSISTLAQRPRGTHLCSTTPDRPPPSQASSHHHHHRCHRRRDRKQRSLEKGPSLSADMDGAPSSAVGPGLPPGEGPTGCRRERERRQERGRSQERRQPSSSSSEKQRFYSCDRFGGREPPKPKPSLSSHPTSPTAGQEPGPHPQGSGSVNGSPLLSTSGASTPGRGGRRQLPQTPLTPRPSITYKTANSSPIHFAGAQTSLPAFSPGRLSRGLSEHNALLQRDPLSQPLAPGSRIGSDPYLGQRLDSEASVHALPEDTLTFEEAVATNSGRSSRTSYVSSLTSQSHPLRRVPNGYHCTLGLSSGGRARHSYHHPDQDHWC
Sequence (P54289 25-1103 partner): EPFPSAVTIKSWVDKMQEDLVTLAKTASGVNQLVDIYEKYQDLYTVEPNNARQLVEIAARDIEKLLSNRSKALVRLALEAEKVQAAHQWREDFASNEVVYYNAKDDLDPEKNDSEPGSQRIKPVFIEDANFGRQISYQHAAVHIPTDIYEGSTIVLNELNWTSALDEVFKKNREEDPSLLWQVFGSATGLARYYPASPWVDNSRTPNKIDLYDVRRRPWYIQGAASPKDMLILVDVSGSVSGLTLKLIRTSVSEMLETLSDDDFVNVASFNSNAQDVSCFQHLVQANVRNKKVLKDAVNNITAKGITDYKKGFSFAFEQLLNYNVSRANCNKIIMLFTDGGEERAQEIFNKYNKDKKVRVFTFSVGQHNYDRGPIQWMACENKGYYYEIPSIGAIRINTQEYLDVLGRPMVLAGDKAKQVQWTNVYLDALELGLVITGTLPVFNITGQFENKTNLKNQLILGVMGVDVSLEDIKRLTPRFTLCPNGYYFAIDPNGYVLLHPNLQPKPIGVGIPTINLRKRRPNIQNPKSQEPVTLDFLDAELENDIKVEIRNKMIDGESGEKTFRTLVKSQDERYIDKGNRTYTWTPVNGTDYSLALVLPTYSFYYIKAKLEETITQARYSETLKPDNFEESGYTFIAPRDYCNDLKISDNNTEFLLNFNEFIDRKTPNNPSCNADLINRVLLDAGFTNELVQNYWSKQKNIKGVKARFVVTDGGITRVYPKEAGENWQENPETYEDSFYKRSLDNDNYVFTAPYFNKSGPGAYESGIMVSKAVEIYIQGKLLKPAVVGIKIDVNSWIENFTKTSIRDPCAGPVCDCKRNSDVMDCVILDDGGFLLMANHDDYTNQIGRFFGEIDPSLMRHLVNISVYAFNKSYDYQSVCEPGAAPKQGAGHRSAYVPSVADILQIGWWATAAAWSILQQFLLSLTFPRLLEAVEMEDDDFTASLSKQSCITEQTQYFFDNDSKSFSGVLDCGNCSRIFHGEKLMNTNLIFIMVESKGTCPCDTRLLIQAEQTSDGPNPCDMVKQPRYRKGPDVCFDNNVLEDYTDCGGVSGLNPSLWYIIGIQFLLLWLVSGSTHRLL
Sequence (P54284 whole entry partner): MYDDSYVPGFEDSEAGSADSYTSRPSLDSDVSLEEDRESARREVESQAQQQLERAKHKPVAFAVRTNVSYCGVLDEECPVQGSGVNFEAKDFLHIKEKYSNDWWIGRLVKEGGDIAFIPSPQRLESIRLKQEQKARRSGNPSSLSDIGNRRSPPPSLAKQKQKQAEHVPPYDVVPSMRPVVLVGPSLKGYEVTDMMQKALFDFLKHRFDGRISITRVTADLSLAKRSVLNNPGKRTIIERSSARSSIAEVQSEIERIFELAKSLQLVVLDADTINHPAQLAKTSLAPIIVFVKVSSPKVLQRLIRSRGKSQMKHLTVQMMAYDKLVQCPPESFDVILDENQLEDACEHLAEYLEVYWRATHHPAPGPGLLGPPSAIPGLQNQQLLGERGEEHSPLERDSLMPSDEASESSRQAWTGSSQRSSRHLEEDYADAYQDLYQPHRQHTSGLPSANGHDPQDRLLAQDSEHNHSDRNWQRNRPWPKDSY
Assay Method Text: Fluorescent assay for CaV2.2 channels using potassium depolarization (VIPR/FLIPR)
Type: cell-based
Setup Conditions: FLIPR data; inactivated state; read-out: CAv2.2 IC50 Inact.
Enter your answer as a number in nM; do not include the unit.

Examples with answers:
CC(C)([C@H]1C[C@H](NC(=O)c2ccc(F)c(Cl)c2)C1)S(=O)(=O)c1cccc(OC(F)(F)F)c1 :: 220
CC(C)([C@H]1C[C@@H](C(=O)Nc2ccc(C(F)(F)F)cn2)C1)S(=O)(=O)c1cccc(C(F)(F)F)c1 :: 390
CC(C)([C@H]1C[C@H](NC(=O)c2ncc(C(F)(F)F)cn2)C1)S(=O)(=O)c1cccc(C(F)(F)F)c1 :: 790

State IC50 (Human Cav 2.2 channels (Homo sapiens)) of N[C@H]1CCCCC1C(=O)NC[C@H]1C[C@H](S(=O)(=O)c2cc(F)cc(C(F)(F)F)c2)C1 (stereo partly drawn) . 5160

State IC50 (Human Cav 2.2 channels (Homo sapiens)) of `CC(C)([C@H]1C[C@@H](NC(=O)c2ccnc(C(F)(F)F)n2)C1)S(=O)(=O)c1cccc(OC(F)(F)F)c1` . 630

State IC50 (Human Cav 2.2 channels (Homo sapiens)) of `CC(C)([C@H]1C[C@@H](NS(=O)(=O)c2ccc(C(F)(F)F)cc2)C1)S(=O)(=O)c1cc(F)cc(C(F)(F)F)c1` . 700
